Numbers sourced from patent US20040058983A1.

Assay: Antioxidant effect, IC50 against DPPH
Type: biochemical
Settings: read-out: IC50 [moles L^−1] against DPPH′
Excerpt: In the following Table I some of the preferred plant-derived phenolic compounds according to the present invention, the effect of the compounds on the calcium influx to the cell, the antioxidant effect as well as the chemical structure of the compounds are presented.
// values below are reported IC50

>  <compound>
COc1cc(O)c2c(=O)c(O)c(-c3ccc(O)c(O)c3)oc2c1

>  <result>
12.1 µM

$$$$
>  <compound>
O=c1c(-c2ccc(O)cc2)coc2cc(O)ccc12

>  <result>
> 3930 µM

$$$$
>  <compound>
CCCCCCCCCCCCOC(=O)c1cc(O)c(O)c(O)c1 [Dodecyl gallate]

>  <result>
15.4 µM

$$$$

Let us move to another entry and its IC50.
# query: IC50 of entry `O=c1c(-c2ccc(O)cc2)coc2cc(O)cc(O)c12`
> 3700 µM
